Growth Rate overview
System: U2OS
experiment-summary: Incucyte cell viability with U2OS; also: filed as whole numbers so only -1 and 0 and 1 occur
Format: toxicity, cell-based
recorded-conditions: human, 6 h, 10 µM, compound concentration 10 uM, replicate number 1, timepoint 6 hours
readout-type: Growth Rate

>>> observed_value("CNc1nc(Nc2cnn([C@H]3CCN(C4COC4)C[C@@H]3F)c2Cl)ncc1C(F)(F)F")
0
>>> observed_value("Cc1cc2c(cc1N1C(=O)c3cccc4c(CCCO)ccc(c34)C1=O)n(C)c(=O)n2C")
0
>>> observed_value("CN1C(=O)[C@@H](N2CCc3c(nn(Cc4ccccc4)c3Br)C2=O)COc2ccccc21")
0
>>> observed_value("Cl.Cl.Nc1ncnc2c1c(-c1cccc(OCc3ccccc3)c1)cn2[C@H]1C[C@@H](CN2CCC2)C1")
0
>>> observed_value("CCC(=O)N[C@@H]1CC[C@H](C(=O)N(C)c2ccc(-c3nc4ccccc4o3)cc2)C1")
0
>>> observed_value("Cc1cnc(-c2cc(Cl)ccc2F)cc1-n1c(=O)n(CC(N)=O)c2cnccc21")
1
>>> observed_value("C1=N/C2=N/c3ccc(OCCN4CCCC4)c(c3)COC/C=C\\COCc3cccc(c3)C(=C1)N2")
0
>>> observed_value("CNc1cc2[nH]c(=O)n(-c3ccc(NC(=O)NS(=O)(=O)c4ccc(Cl)s4)cc3)c(=O)c2cc1F")
0
>>> observed_value("Cn1cc(-c2ccc3occ(-c4ccccc4-c4ccccc4)c3n2)cn1")
1
>>> observed_value("Cc1cc(C)cc(C(=O)N(C)[C@H](Cc2ccc(-c3ccccc3)cc2)C(=O)N[C@@H](Cc2c[nH]c3ccccc23)C(=O)O)c1")
0
>>> observed_value("Cc1nc(Cc2cccc(C(F)(F)F)c2)sc1-c1ccc(C(N)=O)nc1 [TP-024n]")
0
>>> observed_value("Cc1cc(C(=O)N2Cc3cnn(C)c3Nc3ccccc32)ccc1CNC(=O)N1CCC[C@H]1C(=S)N1CCCN(C)CC1")
0
>>> observed_value("N#Cc1cnc(Nc2cc(NC[C@H]3CNCCO3)c(C(F)(F)F)cn2)cn1")
0
>>> observed_value("C[C@H](CO)Nc1nc(SCc2cccc(Cl)c2F)nc2[nH]c(=O)sc12")
1
>>> observed_value("Cl.Cl.NC1(c2ccc(-c3nc4ccn5c(=O)[nH]nc5c4cc3-c3ccccc3)cc2)CCC1")
1
>>> observed_value("O=C(O)c1ccc2c(c1)nc(Nc1cccc(Cl)c1)c1ccncc12")
1
>>> observed_value("Cc1cn(-c2cc(NC(=O)c3ccc4c(c3)CN(c3cncnc3)C[C@@H]4C)cc(C(F)(F)F)c2)cn1")
0

* * *

Test system: Fibroblast
experiment-summary: Multiplex assay against human fibroblast
Type: toxicity, cell-based
recorded-conditions: 48 h, 10 µM, compound concentration 10 uM, replicate 2
readout-type: Population Healthy Nuclei (%)

>>> observed_value("Cc1nc(Cc2cccc(C(F)(F)F)c2)sc1-c1ccc(C(N)=O)nc1 [TP-024n]")
68
>>> observed_value("Cc1cc2c(cc1N1C(=O)c3cccc4c(CCCO)ccc(c34)C1=O)n(C)c(=O)n2C")
68
>>> observed_value("COc1cc(N2CCC(N(C)C)CC2)ccc1Nc1ncc(Cl)c(Nc2ccccc2P(C)(C)=O)n1")
61
>>> observed_value("Nc1ccc(C(=O)Nc2cccc(-c3nc(N4CCOCC4)c4oc5ncccc5c4n3)c2)cn1")
14
>>> observed_value("CCc1cc2c(cc1CC)CC(NC[C@H](O)c1ccc(O)c3[nH]c(=O)ccc13)C2 [INDACATEROL]")
44

* * *

Tested on: HEK-293T
experiment-summary: Multiplex assay against HEK293T
Type: toxicity, cell-based
recorded-conditions: human, 24 h, 1 µM, compound concentration 1 uM, replicate 2
Note to self: Population Pyknosed Nuclei (%) under 5% means Fulfilled, ties and anything higher get Not fulfilled.

>>> class("CCc1cc2c(cc1CC)CC(NC[C@H](O)c1ccc(O)c3[nH]c(=O)ccc13)C2 [INDACATEROL]")
"Not fulfilled"
>>> class("CCOc1cc2ncc(C#N)c(Nc3ccc(OCc4cccc(F)c4)c(Cl)c3)c2cc1NC(=O)/C=C/CN(C)C [HKI-357]")
"Fulfilled"
>>> class("CC(C)Oc1ccc(C(=O)N[C@H](CNC(=O)CN(C)C)Cc2ccc(-c3cn4cccc([C@H](C)O)c4n3)cc2)cc1Cl [GSK-923295A]")
"Not fulfilled"
>>> class("CC(C)N1CCC(C)(C)c2cc(C#Cc3ccc(C(=O)O)cc3)ccc21")
"Not fulfilled"
>>> class("Cc1nc(Cc2cccc(C(F)(F)F)c2)sc1-c1ccc(C(N)=O)nc1 [TP-024n]")
"Not fulfilled"
>>> class("CN(C)C/C=C/C(=O)Nc1cc2c(Nc3ccc(F)c(Cl)c3)ncnc2cc1O[C@H]1CCOC1.O=C(O)/C=C\\C(=O)O.O=C(O)/C=C\\C(=O)O [AFATINIB DIMALEATE]")
"Fulfilled"
>>> class("CNc1oc(-c2cccc3ccccc23)nc1C#N")
"Not fulfilled"
>>> class("N#Cc1cnc(Nc2cc(NC[C@H]3CNCCO3)c(C(F)(F)F)cn2)cn1 [SRA-737]")
"Fulfilled"
>>> class("Nc1ccc(C(=O)Nc2cccc(-c3nc(N4CCOCC4)c4oc5ncccc5c4n3)c2)cn1")
"Not fulfilled"

* * *

Tested on: Fibroblast
experiment-summary: Multiplex assay against human fibroblast
Type: toxicity, cell-based
recorded-conditions: 24 h, 10 µM, compound concentration 10 uM, replicate 2
Classification field: enter yes for Population Membrane Permeable-Phenotype (%) values not below 10%, no for values below it.

>>> class("Cc1cn(-c2cc(NC(=O)c3ccc4c(c3)CN(c3cncnc3)C[C@@H]4C)cc(C(F)(F)F)c2)cn1")
"no"
>>> class("O=C(O)c1ccc2cc(-c3ccc(O)c(C45CC6CC(CC(C6)C4)C5)c3)ccc2c1")
"no"
>>> class("N#Cc1cnc(Nc2cc(NC[C@H]3CNCCO3)c(C(F)(F)F)cn2)cn1")
"yes"
>>> class("Cl.Cl.NC1(c2ccc(-c3nc4ccn5c(=O)[nH]nc5c4cc3-c3ccccc3)cc2)CCC1")
"yes"
>>> class("CCn1c(-c2nonc2N)nc2cnc(Oc3cccc(NC(=O)c4ccc(OCCN5CCOCC5)cc4)c3)cc21 [GSK-269962A]")
"yes"
>>> class("CCC(=O)O[C@]1(C(=O)SCF)[C@H](C)C[C@H]2[C@@H]3C[C@H](F)C4=CC(=O)C=C[C@]4(C)[C@@]3(F)[C@@H](O)C[C@@]21C [FLUTICASONE PROPIONATE]")
"no"
>>> class("Cc1nc(Cc2cccc(C(F)(F)F)c2)sc1-c1ccc(C(N)=O)nc1 [TP-024n]")
"yes"
>>> class("c1ccc2oc(-c3csc(C4CCN(Cc5nc6ncccc6[nH]5)CC4)n3)cc2c1")
"yes"

* * *

Population Membrane Permeable-Phenotype (%) overview
Test system: U2OS
experiment-summary: Multiplex assay against U2OS
Type: toxicity, cell-based
recorded-conditions: human, 24 h, 1 µM, compound concentration 1 uM, replicate 2
readout-type: Population Membrane Permeable-Phenotype (%)

>>> observed_value("CNc1oc(-c2cccc3ccccc23)nc1C#N")
1
>>> observed_value("Cl.Cl.NC1(c2ccc(-c3nc4ccn5c(=O)[nH]nc5c4cc3-c3ccccc3)cc2)CCC1")
10
>>> observed_value("CCOc1cc2ncc(C#N)c(Nc3ccc(OCc4cccc(F)c4)c(Cl)c3)c2cc1NC(=O)/C=C/CN(C)C [HKI-357]")
10
>>> observed_value("CCOc1cc(N2CCC(O)CC2)ccc1Nc1ncc2c(n1)N(C1CCCC1)CCC(=O)N2C")
11
>>> observed_value("CC(C)N1CCC(C)(C)c2cc(C#Cc3ccc(C(=O)O)cc3)ccc21")
3

* * *

Test system: HEK-293T
experiment-summary: Multiplex assay against HEK293T
Assay type: toxicity, cell-based
recorded-conditions: human, 48 h, 1 µM, compound concentration 1 uM, replicate 1
readout-type: Population Mitochondria Different-Phenotype (%)

>>> observed_value("CNc1oc(-c2cccc3ccccc23)nc1C#N")
17
>>> observed_value("CCc1cc2c(cc1CC)CC(NC[C@H](O)c1ccc(O)c3[nH]c(=O)ccc13)C2")
45
>>> observed_value("COc1ccc(NS(=O)(=O)c2sc3ccc(Cl)cc3c2C)cc1N1CCNCC1.Cl")
37
>>> observed_value("CCn1c(-c2nonc2N)nc2cnc(Oc3cccc(NC(=O)c4ccc(OCCN5CCOCC5)cc4)c3)cc21 [GSK-269962A]")
54
>>> observed_value("CCCn1c(=O)c2[nH]c(C34CC5CC(CC3C5)C4)nc2n(CCC)c1=O")
61
>>> observed_value("CC(C)N1CCC(C)(C)c2cc(C#Cc3ccc(C(=O)O)cc3)ccc21")
29
>>> observed_value("Cl.Cl.Nc1ncnc2c1c(-c1cccc(OCc3ccccc3)c1)cn2[C@H]1C[C@@H](CN2CCC2)C1")
97
>>> observed_value("Nc1ccc(C(=O)Nc2cccc(-c3nc(N4CCOCC4)c4oc5ncccc5c4n3)c2)cn1")
82
>>> observed_value("O=C(O)c1ccc2cc(-c3ccc(O)c(C45CC6CC(CC(C6)C4)C5)c3)ccc2c1")
13
>>> observed_value("COc1cc2c(NC3CCN(C(C)C)CC3)nc(N3CCC(F)(F)CC3)nc2cc1OCCCN1CCCC1")
38
>>> observed_value("CC(=O)c1cc(-c2cc(C(=O)NC3CC3)ccc2C)c2ncccn12")
22
>>> observed_value("Cc1cc2c(cc1N1C(=O)c3cccc4c(CCCO)ccc(c34)C1=O)n(C)c(=O)n2C")
33
>>> observed_value("Cc1nc(Cc2cccc(C(F)(F)F)c2)sc1-c1ccc(C(N)=O)nc1 [TP-024n]")
25
>>> observed_value("CCC(=O)O[C@]1(C(=O)SCF)[C@H](C)C[C@H]2[C@@H]3C[C@H](F)C4=CC(=O)C=C[C@]4(C)[C@@]3(F)[C@@H](O)C[C@@]21C [FLUTICASONE PROPIONATE]")
34
>>> observed_value("Nc1nc2c(c(N3CCNCC3)n1)CCC1=C2[C@@H]2CCCC[C@@H]2O1")
25
